# system.under.test: Metabotropic glutamate receptor 1 (Rattus norvegicus, UniProt P23385)
# Sequence (P23385 whole entry): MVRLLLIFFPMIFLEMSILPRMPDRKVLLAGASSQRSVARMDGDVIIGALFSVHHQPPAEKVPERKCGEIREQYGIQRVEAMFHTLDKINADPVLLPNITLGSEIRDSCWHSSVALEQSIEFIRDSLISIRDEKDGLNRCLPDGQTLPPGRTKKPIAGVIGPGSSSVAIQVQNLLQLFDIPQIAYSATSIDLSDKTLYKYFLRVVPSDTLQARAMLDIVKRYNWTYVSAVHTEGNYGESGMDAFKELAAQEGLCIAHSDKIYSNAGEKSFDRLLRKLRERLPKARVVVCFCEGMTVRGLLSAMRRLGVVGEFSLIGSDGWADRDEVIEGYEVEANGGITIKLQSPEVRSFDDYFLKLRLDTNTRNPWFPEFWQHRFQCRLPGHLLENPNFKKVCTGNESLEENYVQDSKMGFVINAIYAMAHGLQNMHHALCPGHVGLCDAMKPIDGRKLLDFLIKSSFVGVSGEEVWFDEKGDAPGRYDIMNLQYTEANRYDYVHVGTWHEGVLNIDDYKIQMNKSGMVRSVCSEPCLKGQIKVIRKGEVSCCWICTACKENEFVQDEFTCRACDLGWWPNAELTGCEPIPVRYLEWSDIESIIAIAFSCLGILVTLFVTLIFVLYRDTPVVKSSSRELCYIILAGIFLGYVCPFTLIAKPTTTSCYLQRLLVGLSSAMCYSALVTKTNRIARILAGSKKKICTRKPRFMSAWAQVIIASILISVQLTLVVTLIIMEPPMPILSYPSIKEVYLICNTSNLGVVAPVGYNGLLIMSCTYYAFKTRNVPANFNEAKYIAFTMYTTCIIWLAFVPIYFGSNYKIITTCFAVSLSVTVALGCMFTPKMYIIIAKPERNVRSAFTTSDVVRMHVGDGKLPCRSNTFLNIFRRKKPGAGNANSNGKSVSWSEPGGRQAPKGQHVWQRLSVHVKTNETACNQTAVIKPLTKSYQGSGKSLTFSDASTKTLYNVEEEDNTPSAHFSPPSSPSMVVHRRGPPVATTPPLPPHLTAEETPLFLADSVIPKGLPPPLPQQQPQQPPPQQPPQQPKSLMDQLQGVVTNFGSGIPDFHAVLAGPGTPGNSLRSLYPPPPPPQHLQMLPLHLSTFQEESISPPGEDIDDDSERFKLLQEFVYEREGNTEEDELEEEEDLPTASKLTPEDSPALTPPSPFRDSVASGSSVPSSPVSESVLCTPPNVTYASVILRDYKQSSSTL
# protocol.text: Antagonist activity at rat mGluR1a expressed in CHO cells assessed as inhibition of glutamate-evoked increase in calcium […] preincubated 5 mins before glutamate challenge
# Format: functional, cell-based
Overview of recorded Ki for various molecules
Give the number; nM is assumed, so skip it.

INSERT INTO results (molecule, test_readout, result_value) VALUES
  ('OCCNc1ncnc2cnc(NC3Cc4ccccc4C3)cc12', 'Ki', 125),
  ('c1ccc2c(NC3CCCCC3)ccnc2c1', 'Ki', 6160),
  ('O=C1CCCN1CCOc1cc2c(NC3CCCCC3)ncnc2cn1', 'Ki', 20);

QUERY: If you can, please state the reported Ki value of OCCNc1cc2c(NC3Cc4ccccc4C3)ncnc2cn1 .
RESULT: 21

QUERY: If you can, please state the reported Ki value of c1ccc2c(NC3CCCCC3)ncnc2c1 .
RESULT: 27

QUERY: If you can, please state the reported Ki value of COCCOc1cc2c(NC3CCCCC3)ncnc2cn1 .
RESULT: 101

QUERY: If you can, please state the reported Ki value of CCCC(C)Nc1ncnc2cnc(N(C)C)cc12 (stereo unspecified) .
RESULT: 858

QUERY: If you can, please state the reported Ki value of CN(C)c1cc2c(NC3CCCCC3)ncnc2cn1 .
RESULT: 199

QUERY: If you can, please state the reported Ki value of COCCNc1cc2c(NC3CCCCC3)ncnc2cn1 .
RESULT: 11
